All values here come from ChEMBL document CHEMBL3286204.

- TARGET ENTITY: Amyloid-beta precursor protein (Homo sapiens)
- PROTOCOL DESCRIPTION: Neuroprotective activity against amyloid beta (25 to 35)-induced cell death in human SH-SY5Y cells assessed as cell viability at 0.4 uM after 24 hrs by MTT assay relative to control
- Format: functional, cell-based
MEASURED PROPERTY: Activity (%)

>>> print(df.to_string())
                  compound_structure_string  measured_property  readout_number
0  COc1ccc(C[C@@H](C)[C@@H](C)Cc2ccc3c(c2)OCO3)cc1OC           Activity            62.2
1  COc1cc([C@@H]2c3cc(OC)c(O)cc3C=C(C)[C@H]2C)ccc1O           Activity            60.7
2  COc1cc(C[C@H](C)[C@H](C)Cc2ccc3c(c2)OCO3)ccc1O           Activity            61.5
3  COc1ccc([C@H]2c3cc4c(cc3C[C@@H](C)[C@@H]2C)OCO4)cc1OC           Activity            58.2
4  COc1ccc([C@H]2O[C@H](c3ccc4c(c3)OCO4)[C@@H](C)[C@H]2C)cc1OC           Activity            58.1

###

- TARGET ENTITY: Amyloid-beta precursor protein (Homo sapiens) (UniProt P05067)
- Sequence (P05067 whole entry): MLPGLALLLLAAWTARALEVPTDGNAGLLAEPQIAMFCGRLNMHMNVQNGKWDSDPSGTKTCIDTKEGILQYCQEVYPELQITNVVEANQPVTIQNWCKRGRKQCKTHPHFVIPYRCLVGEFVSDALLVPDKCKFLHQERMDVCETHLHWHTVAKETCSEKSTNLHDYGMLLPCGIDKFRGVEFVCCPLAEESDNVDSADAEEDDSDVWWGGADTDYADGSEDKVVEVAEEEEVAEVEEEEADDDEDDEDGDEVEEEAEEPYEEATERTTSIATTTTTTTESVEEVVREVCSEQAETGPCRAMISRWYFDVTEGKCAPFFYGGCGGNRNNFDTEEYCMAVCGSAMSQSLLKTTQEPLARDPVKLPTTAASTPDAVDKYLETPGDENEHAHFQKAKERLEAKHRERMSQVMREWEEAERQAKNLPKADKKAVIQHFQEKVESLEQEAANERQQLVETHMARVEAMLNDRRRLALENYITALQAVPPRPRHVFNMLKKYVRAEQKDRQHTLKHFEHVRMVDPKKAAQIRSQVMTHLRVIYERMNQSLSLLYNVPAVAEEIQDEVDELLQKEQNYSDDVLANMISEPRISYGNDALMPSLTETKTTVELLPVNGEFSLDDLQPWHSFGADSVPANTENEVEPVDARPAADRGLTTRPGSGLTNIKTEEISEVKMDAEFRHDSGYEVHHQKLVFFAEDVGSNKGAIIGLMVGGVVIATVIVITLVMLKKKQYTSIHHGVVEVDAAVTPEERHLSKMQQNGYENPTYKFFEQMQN
- PROTOCOL DESCRIPTION: Neuroprotective activity against amyloid beta (25 to 35)-induced cell death in human SH-SY5Y cells assessed as cell viability at 10 uM after 24 hrs by MTT assay relative to control
- Type: functional, cell-based
MEASURED PROPERTY: Activity (%)

COMPOUND	UNIT DESCRIPTOR	READOUT NUMBER
O=C1O[C@H]([C@@H](O)CO)C(O)=C1O [ASCORBIC ACID]	%	58
COc1ccc([C@H]2O[C@H](c3ccc4c(c3)OCO4)[C@@H](C)[C@H]2C)cc1OC	%	60.4
OC[C@H](Cc1ccc2c(c1)OCO2)[C@H](CO[C@@H]1O[C@H](CO)[C@@H](O)[C@H](O)[C@H]1O)Cc1ccc2c(c1)OCO2	%	65.2
COc1cc([C@H]2c3cc4c(cc3C[C@@H](C)[C@@H]2C)OCO4)ccc1O	%	60.5
COc1ccc([C@H]2c3cc4c(cc3C[C@@H](C)[C@@H]2C)OCO4)cc1OC	%	58.7
COc1ccc(C[C@@H](C)[C@@H](C)Cc2ccc3c(c2)OCO3)cc1OC	%	61.9
COc1cc(C[C@@H](C)[C@@H](C)Cc2ccc(O)c(OC)c2)ccc1O [MESODIHYDROGUAIARETIC ACID]	%	68.3
OC[C@H](Cc1ccc2c(c1)OCO2)[C@H](CO[C@@H]1O[C@H](CO[C@@H]2O[C@@H](CO)[C@H](O)[C@H]2O)[C@@H](O)[C@H](O)[C@H]1O)Cc1ccc2c(c1)OCO2	%	58.3
COc1ccc(C(=O)O[C@@H](c2ccc3c(c2)OCO3)[C@H](C)C(C)=O)cc1OC	%	66.8
COc1cc(C[C@H](C)[C@H](C)Cc2ccc3c(c2)OCO3)ccc1O [AUSTROBAILIGNAN 6]	%	64.4
COc1cc([C@@H]2c3cc(OC)c(O)cc3C=C(C)[C@H]2C)ccc1O	%	65.2
